tested on: PPARg:RXRa IVT, anti-PPARg (NR concentration 270 nM, RXRa partner concentration 90 nM); experiment: PBM binding z-score (relative to random genomic background probes); higher = stronger binding; sequences stand for … in GC…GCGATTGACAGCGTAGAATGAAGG
Each entry below carries its recorded PBM binding z-score.

// known answers, use as guide
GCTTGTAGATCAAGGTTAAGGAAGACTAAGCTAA | 1.17
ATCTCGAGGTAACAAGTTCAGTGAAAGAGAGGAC | 1.41
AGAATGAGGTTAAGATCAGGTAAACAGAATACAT | 2.93

(Q) Find the measured PBM binding z-score of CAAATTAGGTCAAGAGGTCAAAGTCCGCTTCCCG with PPARg:RXRa IVT, anti-PPARg (NR concentration 270 nM, RXRa partner concentration 90 nM) as test system.
(A) 8.22

(Q) Report its PBM binding z-score with PPARg:RXRa IVT, anti-PPARg (NR concentration 270 nM, RXRa partner concentration 90 nM) as the test system: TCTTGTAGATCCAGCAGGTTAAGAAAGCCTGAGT
(A) -0.258

(Q) Give measured PBM binding z-score for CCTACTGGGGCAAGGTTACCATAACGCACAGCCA (PPARg:RXRa IVT, anti-PPARg (NR concentration 270 nM, RXRa partner concentration 90 nM)).
(A) 5.52

###

test system: RARa homodimer (NR concentration 270 nM); assay: PBM binding z-score (relative to random genomic background probes); higher = stronger binding; sequences stand for … in GC…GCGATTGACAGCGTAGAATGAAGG
Label t for high-side PBM binding z-score (at or above 0.7) and f for low-side PBM binding z-score (below it).

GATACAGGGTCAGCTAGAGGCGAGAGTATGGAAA | f
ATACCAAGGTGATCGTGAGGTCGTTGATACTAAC | t
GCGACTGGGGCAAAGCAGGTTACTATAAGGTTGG | f
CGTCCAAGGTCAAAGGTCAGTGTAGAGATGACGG | t
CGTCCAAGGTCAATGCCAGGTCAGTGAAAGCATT | t
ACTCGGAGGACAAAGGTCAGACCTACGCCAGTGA | t
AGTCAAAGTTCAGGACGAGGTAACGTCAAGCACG | t
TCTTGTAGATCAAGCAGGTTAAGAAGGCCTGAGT | f

(Q) Item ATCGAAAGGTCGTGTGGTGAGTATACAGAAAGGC with PBM binding z-score of 0.7 or above?
(A) t

(Q) Reported PBM binding z-score reaches at least 0.7 for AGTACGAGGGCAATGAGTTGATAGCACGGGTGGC ?
(A) f

(Q) Could you tell me if the measured PBM binding z-score of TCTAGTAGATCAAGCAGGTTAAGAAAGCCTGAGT reaches 0.7 or more?
(A) f

###

tested on: PPARg homodimer (NR concentration 180 nM); test: PBM binding z-score (relative to random genomic background probes); higher = stronger binding; sequences stand for … in GC…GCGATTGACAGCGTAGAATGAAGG
Each entry below carries its reported PBM binding z-score.
Answer with the value's number alone.

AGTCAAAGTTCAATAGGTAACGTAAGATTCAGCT | 2.73
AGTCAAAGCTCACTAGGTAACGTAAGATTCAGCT | -0.462
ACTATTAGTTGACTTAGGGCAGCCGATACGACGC | -0.15
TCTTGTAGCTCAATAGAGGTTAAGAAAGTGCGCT | -0.185
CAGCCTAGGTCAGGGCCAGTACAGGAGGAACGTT | 0.93
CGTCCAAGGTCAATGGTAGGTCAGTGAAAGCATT | 5.44
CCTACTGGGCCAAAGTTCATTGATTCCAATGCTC | 4.94
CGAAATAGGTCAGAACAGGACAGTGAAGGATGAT | 1.47
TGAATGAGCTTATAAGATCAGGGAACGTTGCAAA | -0.626
ACAGACAGGGGATGAAGGTAACTCAGGCTATCAT | 0.411

(Q) State its PBM binding z-score for this sequence: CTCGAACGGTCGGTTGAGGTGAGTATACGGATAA
(A) -1.41

(Q) Note down PBM binding z-score recorded for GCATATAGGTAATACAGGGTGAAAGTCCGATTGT
(A) 1.08

###

tested on: RARg homodimer (NR concentration 270 nM); assay: PBM binding z-score (relative to random genomic background probes); higher = stronger binding; sequences stand for … in GC…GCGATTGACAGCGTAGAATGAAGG
measured-metric: PBM binding z-score
Note: the reply should be a number with no unit written.

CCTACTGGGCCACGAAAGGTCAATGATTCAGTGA | 4.64
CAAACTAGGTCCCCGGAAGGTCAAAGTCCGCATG | 3.32
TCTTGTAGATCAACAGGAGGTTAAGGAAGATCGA | 0.308
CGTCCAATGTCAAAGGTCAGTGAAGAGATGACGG | 5.43
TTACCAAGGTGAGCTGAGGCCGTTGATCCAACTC | -0.0104

Now for another entry.
(Q) Answer with PBM binding z-score of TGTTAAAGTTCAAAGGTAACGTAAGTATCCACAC measured for RARg homodimer (NR concentration 270 nM).
(A) 5.47

###

tested on: VDR homodimer (NR concentration 270 nM); experiment: PBM binding z-score (relative to random genomic background probes); higher = stronger binding; sequences stand for … in GC…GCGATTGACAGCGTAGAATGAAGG
measured-metric: PBM binding z-score
Respond numerically, and do not add a unit to the figure.

Examples from the recorded data:
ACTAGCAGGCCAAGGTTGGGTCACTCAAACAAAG | 0.0121
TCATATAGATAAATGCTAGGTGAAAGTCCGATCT | 0.203
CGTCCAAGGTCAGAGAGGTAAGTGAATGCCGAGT | 1.71
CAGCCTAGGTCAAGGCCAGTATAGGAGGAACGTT | 0.353

Below: the item to evaluate.
(Q) Name the recorded PBM binding z-score of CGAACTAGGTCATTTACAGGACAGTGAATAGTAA , assay system VDR homodimer (NR concentration 270 nM).
(A) 1.75

###

tested on: PPARg homodimer (NR concentration 180 nM); test: PBM binding z-score (relative to random genomic background probes); higher = stronger binding; sequences stand for … in GC…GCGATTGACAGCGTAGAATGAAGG
Kind request: treat 1 as inclusive, so PBM binding z-score at 1 or higher is 1, anything lower is -1.

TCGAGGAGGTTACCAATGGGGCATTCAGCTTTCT | -1
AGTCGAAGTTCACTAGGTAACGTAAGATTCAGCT | -1
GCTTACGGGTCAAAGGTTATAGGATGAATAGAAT | 1
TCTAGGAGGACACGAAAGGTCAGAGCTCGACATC | 1
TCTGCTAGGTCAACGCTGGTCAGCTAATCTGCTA | 1
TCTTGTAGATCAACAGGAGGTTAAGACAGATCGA | -1
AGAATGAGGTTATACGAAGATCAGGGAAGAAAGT | -1
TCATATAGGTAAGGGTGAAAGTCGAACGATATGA | 1

(Q) Please indicate if the recorded PBM binding z-score for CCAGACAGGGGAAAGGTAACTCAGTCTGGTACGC meets or exceeds 1.
(A) -1

(Q) Given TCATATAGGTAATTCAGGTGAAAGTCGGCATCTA , state whether its PBM binding z-score is at least 1.
(A) 1

(Q) Form field: PBM binding z-score at least 1? Entry: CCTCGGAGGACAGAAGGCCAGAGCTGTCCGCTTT
(A) -1

###

tested on: RXRa homodimer (NR concentration 180 nM); assay: PBM binding z-score (relative to random genomic background probes); higher = stronger binding; sequences stand for … in GC…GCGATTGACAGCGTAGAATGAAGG
sequences and their reported PBM binding z-score
Reply with the value as a number alone.

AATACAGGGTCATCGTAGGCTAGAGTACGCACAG | 6.87

(Q) GET PBM binding z-score where system = RXRa homodimer (NR concentration 180 nM) and item = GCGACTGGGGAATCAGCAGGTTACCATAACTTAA
(A) 0.0152

(Q) Lab note: record PBM binding z-score of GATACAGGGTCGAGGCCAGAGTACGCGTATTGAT tested on RXRa homodimer (NR concentration 180 nM).
(A) 2.13

###

system: RXRa DBDmut IVT, anti-RXR (DBD mutation: RXRa K156A/R161A, NR concentration 90 nM); test: PBM binding z-score (relative to random genomic background probes); higher = stronger binding; sequences stand for … in GC…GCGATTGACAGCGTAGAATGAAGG
Recorded PBM binding z-score for the following sequences
Give a plain numeric answer without units written out.

Worked cases, PBM binding z-score given:
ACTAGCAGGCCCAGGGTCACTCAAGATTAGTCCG | -0.284
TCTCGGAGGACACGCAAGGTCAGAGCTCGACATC | 1.23
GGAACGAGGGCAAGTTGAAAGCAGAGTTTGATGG | 2.41
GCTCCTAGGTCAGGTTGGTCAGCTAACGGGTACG | 0.888
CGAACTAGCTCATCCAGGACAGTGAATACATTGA | 0.64
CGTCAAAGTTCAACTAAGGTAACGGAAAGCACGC | 4.63
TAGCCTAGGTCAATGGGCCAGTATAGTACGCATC | 0.537
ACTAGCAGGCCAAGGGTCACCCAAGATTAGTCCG | 0.27

(Q) In one line, give reported PBM binding z-score of the entry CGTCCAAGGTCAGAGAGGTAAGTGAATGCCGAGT .
(A) 2.67

(Q) Report PBM binding z-score, nothing else, for this sequence: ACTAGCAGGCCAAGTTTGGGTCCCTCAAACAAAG
(A) -0.528

(Q) Specify measured PBM binding z-score for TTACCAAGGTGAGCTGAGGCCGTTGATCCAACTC .
(A) -0.748

(Q) Indicate the recorded PBM binding z-score value for this sequence: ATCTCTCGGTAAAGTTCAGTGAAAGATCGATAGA
(A) 1.17

(Q) Fill in PBM binding z-score for record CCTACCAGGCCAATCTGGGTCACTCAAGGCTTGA
(A) -0.157

(Q) Supply measured PBM binding z-score of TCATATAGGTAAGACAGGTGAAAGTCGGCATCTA in your reply.
(A) 1.36

(Q) Specify reported PBM binding z-score for the sequence shown: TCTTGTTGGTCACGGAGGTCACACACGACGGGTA
(A) 1.25

Reference source: the supplement of paper PMC6555819
